- target desc: WT STING (Homo sapiens, UniProt Q86WV6, H232R)
- Sequence (Q86WV6 140-343 H232R): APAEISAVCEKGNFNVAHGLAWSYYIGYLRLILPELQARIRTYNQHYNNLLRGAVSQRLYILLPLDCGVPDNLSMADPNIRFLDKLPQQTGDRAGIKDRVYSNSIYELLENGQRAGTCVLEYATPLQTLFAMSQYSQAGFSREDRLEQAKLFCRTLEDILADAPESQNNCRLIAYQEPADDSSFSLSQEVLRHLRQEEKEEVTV
- protocol details: Differential Scanning Fluorimetry (DSF) with WT STING
- Type: binding
- Design: truncated human WT STING or AQ STING (amino acid residues 140-343) with N-terminal 8×His and SUMO tag; 8xHis-SUMO (N, cleaved yes); made in house; host or cells: E. coli Rosetta-gami B (DE3)
- condition context: thermal shift vs apoprotein; truncated human WT STING 0.1 mg/ml; 150 μM CDN
experimental readout: DSF ΔTm WT STING (°C)

Below are worked cases with known answers.
Nc1ncnc2c1ncn2[C@@H]1O[C@@H]2OCP(=O)(O)O[C@@H]3[C@H](O)[C@@H](COP(=O)(O)O[C@@H]1[C@@H]2O)O[C@H]3n1cnc2c(N)ncnc21 | 0.7
Nc1ncnc2c1ncn2[C@@H]1O[C@@H]2COP(=O)(O)O[C@@H]3[C@H](O)[C@@H](COCP(=O)(O)O[C@@H]1[C@@H]2O)O[C@H]3n1cnc2c(N)ncnc21 | 2.0
C[C@]12OCP(=O)(O)O[C@H]3[C@H](n4cnc5c(N)ncnc54)O[C@](C)(OCP(=O)(O)O[C@@H]([C@H](n4cnc5c(N)ncnc54)O1)[C@@H]2O)[C@H]3O | 0.6

[I] Nc1ncnc2c1ncn2[C@@H]1O[C@@H]2OCP(=O)(O)O[C@@H]3[C@H](O)[C@@H](OCP(=O)(O)O[C@@H]1[C@@H]2O)O[C@H]3n1cnc2c(N)ncnc21
[II] Nc1ncnc2c1ncn2[C@@H]1O[C@@H]2COP(=O)(O)O[C@H]3[C@H](O)[C@@H](COCP(=O)(O)O[C@@H]1[C@@H]2O)O[C@H]3n1cnc2c(N)ncnc21
input: # argmax over DSF ΔTm WT STING for candidates I and II Lab log: write the label of the selected item as the result.
output: I
(I: 2.5 °C, II: 1.7 °C)
